This collection of values is drawn from patent US20210214460A1.

Target: T1, monomeric human sBCMA (GenScript) (human, UniProt Q02223 1-54)
T1 construct: extracellular domain; also called monomeric BCMA; monomeric (soluble) BCMA
T1 sequence (looked up): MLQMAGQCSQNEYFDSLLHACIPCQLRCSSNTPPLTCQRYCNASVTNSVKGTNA
Experiment: SPR (ProteOn XPR36), antibody captured by anti-Fc, sBCMA 100-6.25 nM as analyte
pKd: −log10 of the molar value.
readout name: pKd

* N22 (lead optimized clone of 15B2GL) (antibody, V domains shown, Cloned into an IgG mammalian expression vector ("Maia") designed for ADC conjugation) VH: EVQLVESGGGLVKPGGSLRLSCAASGFTFSSYSMNWVRQAPGKGLEWVSSISGSSNYIYYADSVKGRFTISRDNAKNSLYLQMNSLRAEDTAVYYCARGGNYFVEYFQYWGQGTLVTVSS VL: EIVLTQSPGTLSLSPGERATLSCRASQYISSNYLAWYQQKPGQAPRLLIYGASNRATGIPDRFSGSGSGTDFTLTISRLEPEDFAVYYCQQYSSSPITFGQGTKLEIK | 7.80
* 15B2GL monoclonal antibody (antibody, V domains shown, Clone 15B2 was converted into human IgG1 and germlined at four residues (15B2GL); also called germlined 15B2) VH: EVQLVESGGGLVKPGGSLRLSCAASGFTFRSYSMNWVRQAPGKGLEWVSSISGSSNYIYYADSVKGRFTISRDNAKNSLYLQMNSLRAEDTAVYYCARGGNYYVEYFQYWGQGTLVTVSS VL: EIVLTQSPGTLSLSPGERATLSCRASQYISSNYLAWYQQKPGQAPRLLIYGASNRATGIPDRFSGSGSGTDFTLTISRLEPEDFAVYYCQQYGSSPITFGQGTKLEIK | 7.22
* L15 (lead optimized clone of 15B2GL) (antibody, V domains shown, Cloned into an IgG mammalian expression vector ("Maia") designed for ADC conjugation) VH: EVQLVESGGGLVKPGGSLRLSCAASGFTFSSYSMNWVRQAPGKGLEWVSSISGQSNYIYYADSVKGRFTISRDNAKNSLYLQMNSLRAEDTAVYYCARGGNYFVEYFQYWGQGTLVTVSS VL: EIVLTQSPGTLSLSPGERATLSCRASQYISSNNLAWYQQKPGQAPRLLIYGASNRATGIPDRFSGSGSGTDFTLTISRLEPEDFAVYYCQQYADSPITFGQGTKLEIK | 8.35
* anti-BCMA antibody J6M0 (antibody, V domains shown) VH: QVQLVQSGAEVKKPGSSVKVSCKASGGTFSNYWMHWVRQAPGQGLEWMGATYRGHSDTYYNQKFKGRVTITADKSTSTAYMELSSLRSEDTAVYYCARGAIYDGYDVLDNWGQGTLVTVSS VL: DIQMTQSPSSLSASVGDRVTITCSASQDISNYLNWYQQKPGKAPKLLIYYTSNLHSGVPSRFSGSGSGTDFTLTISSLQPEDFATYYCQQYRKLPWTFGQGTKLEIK | 9.00
